Provenance of the data: the supplement of paper PMC3334620

Target: Stb5 (UniProt P38699)
Sequence: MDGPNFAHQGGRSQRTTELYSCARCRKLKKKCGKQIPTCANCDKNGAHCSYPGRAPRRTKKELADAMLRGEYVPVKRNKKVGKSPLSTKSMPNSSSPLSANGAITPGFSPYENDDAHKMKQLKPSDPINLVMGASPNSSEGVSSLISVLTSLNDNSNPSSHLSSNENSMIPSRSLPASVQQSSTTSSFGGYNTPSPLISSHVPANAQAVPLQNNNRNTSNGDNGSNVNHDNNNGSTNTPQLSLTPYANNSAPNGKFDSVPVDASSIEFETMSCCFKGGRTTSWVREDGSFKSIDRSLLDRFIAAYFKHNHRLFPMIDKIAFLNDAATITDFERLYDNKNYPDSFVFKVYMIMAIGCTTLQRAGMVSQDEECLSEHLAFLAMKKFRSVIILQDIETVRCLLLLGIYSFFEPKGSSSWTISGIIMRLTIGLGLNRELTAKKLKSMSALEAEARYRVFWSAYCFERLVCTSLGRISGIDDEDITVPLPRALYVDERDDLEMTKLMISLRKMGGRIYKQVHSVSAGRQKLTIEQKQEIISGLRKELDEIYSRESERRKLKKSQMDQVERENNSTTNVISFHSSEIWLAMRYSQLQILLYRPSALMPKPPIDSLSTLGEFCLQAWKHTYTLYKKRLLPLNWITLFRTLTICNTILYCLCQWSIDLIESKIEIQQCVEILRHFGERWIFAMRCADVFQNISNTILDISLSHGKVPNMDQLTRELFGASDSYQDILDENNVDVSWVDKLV
Experiment: PBM E-score (8-mer binding enrichment) (E-score (-0.5 to 0.5)); higher = stronger / more preferred TF binding
Conditions: protein concentration: 200 nM; construct: GST-full length
Whole data set: some 33,000 sequences, median “E-score (-0.5 to 0.5)” near -0.054, cut for the highest 2% near 0.35. Shown is part of a subset that was picked to be rich in the highest values.
Parameter threshold = 0.2. Response is fulfilled when PBM E-score meets or exceeds it, else not fulfilled.

Solved entries (count: 3):
INSERT INTO assay_data (sequencestring, testtarget, assignedcategory) VALUES
  ('GGGTCCCA', 'Stb5 (UniProt P38699)', 'not fulfilled'),
  ('AGGTCCGG', 'Stb5 (UniProt P38699)', 'fulfilled'),
  ('ATCACCGC', 'Stb5 (UniProt P38699)', 'fulfilled');

Does the reported PBM E-score for ACAATTCG fall at or above the 0.2 mark?
not fulfilled

Now consider AGGCCGTG and answer again.
fulfilled

Another sequence: TAGCCGGA
fulfilled

And CAGTTGCC ?
not fulfilled

Can you handle ATCACCGA next?
fulfilled

* * *

Biological target: Stb5 (UniProt P38699)
Sequence: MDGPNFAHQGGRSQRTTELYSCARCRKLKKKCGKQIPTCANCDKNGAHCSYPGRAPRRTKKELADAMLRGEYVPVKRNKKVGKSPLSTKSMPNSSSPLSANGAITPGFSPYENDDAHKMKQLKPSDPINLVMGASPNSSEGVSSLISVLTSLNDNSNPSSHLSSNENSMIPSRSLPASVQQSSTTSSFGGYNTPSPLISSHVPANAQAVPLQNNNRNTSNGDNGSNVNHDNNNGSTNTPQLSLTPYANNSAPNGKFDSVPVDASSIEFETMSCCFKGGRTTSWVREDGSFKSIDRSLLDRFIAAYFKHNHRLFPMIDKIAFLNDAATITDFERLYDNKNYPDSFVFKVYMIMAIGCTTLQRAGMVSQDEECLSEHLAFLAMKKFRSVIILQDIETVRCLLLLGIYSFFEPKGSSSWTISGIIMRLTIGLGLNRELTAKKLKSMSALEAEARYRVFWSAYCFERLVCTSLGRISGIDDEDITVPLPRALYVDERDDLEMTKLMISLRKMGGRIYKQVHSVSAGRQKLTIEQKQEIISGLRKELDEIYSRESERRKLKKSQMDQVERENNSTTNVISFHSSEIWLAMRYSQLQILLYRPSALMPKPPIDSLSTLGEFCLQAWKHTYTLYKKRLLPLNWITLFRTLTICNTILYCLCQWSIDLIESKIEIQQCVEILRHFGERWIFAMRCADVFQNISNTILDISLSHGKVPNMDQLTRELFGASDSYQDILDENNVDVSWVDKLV
Assay: PBM E-score (8-mer binding enrichment) (E-score (-0.5 to 0.5)); higher = stronger / more preferred TF binding
Settings: protein concentration: 200 nM; construct: GST-full length
Whole data set: some 33,000 sequences, median “E-score (-0.5 to 0.5)” near -0.054, cut for the highest 2% near 0.35. The list comes from a sample in which the highest values are over-represented; it also holds close analogues and randomly drawn sequences.
Reported PBM E-score by item:
Enter a number only.

INSERT INTO measurements (sequencestring, valuereported) VALUES
  ('ACCCCGCC', 0.463),
  ('AACCCGCC', 0.276),
  ('CCCGTCGC', 0.25),
  ('TCCGTGCA', 0.23),
  ('CACCGCAC', 0.357),
  ('AACCCGCT', 0.222);

Turning now to a further sequence:
Reported PBM E-score, sequence ACCGTCGC : ____
0.332

* * *

Biological target: Stb5 (UniProt P38699)
Sequence: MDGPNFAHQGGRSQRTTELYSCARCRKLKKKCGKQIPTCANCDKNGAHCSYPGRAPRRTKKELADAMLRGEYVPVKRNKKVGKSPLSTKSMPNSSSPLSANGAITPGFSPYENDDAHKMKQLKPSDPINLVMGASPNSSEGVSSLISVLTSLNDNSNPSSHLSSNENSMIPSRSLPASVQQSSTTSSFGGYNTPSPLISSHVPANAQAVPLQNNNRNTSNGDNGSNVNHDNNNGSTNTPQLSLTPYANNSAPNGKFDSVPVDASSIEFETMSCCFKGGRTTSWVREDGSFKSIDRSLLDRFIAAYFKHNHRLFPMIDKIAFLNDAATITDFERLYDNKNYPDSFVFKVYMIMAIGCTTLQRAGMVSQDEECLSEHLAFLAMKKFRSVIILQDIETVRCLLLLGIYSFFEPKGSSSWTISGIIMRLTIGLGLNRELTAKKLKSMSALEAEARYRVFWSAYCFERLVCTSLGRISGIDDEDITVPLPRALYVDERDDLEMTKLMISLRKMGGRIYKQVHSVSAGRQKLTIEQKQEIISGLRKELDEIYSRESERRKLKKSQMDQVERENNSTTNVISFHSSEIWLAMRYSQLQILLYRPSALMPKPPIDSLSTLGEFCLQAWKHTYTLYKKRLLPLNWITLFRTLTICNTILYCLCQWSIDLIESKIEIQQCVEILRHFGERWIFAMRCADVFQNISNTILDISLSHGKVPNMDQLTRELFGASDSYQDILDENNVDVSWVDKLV
Test: PBM E-score (8-mer binding enrichment) (E-score (-0.5 to 0.5)); higher = stronger / more preferred TF binding
Settings: protein concentration: 200 nM; construct: GST-full length
In all, about 33,000 sequences were measured (“E-score (-0.5 to 0.5)”: median about -0.054, highest 2% from about 0.35 on). Only a selection was taken, and the highest values are over-represented in it overall.
This listing pairs sequences with measured PBM E-score.
Form field (numeric): enter value without unit.

Reference set, count: 3
INSERT INTO measurements (sequencestring, testtarget, reportedendpoint, valuereported) VALUES
  ('CCAGCCAG', 'Stb5 (UniProt P38699)', 'PBM E-score', -0.223),
  ('CCCGGGTC', 'Stb5 (UniProt P38699)', 'PBM E-score', 0.352),
  ('ACCGGGTC', 'Stb5 (UniProt P38699)', 'PBM E-score', 0.19);

Now for the sequence whose PBM E-score we want.
Value lookup for PBM E-score; key = AGACGGAC
0.331

* * *

Target: Stb5 (UniProt P38699)
Sequence: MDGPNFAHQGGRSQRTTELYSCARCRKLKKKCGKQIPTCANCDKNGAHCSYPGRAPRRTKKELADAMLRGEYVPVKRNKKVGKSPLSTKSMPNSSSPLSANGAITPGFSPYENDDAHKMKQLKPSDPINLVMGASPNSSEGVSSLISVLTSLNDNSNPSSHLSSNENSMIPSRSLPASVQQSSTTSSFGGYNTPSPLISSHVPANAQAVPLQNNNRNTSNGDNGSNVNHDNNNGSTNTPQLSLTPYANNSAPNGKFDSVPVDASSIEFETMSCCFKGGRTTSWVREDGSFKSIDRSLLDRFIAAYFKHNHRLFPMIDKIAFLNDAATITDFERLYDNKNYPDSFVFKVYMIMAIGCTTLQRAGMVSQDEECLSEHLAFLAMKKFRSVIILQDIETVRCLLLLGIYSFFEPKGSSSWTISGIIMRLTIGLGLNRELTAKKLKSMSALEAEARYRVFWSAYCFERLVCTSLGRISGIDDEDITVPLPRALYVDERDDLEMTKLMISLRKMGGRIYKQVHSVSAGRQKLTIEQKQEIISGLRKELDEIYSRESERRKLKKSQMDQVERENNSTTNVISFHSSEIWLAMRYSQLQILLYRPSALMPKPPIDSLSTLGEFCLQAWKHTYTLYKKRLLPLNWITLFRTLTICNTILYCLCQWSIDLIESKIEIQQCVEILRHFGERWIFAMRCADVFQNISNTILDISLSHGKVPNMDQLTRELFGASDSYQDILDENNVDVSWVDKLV
Experiment: PBM E-score (8-mer binding enrichment) (E-score (-0.5 to 0.5)); higher = stronger / more preferred TF binding
Conditions: protein concentration: 200 nM; construct: GST-full length
In all, about 33,000 sequences were measured (“E-score (-0.5 to 0.5)”: median about -0.054, highest 2% from about 0.35 on). The list comes from a sample in which the highest values are over-represented; it also holds close analogues and randomly drawn sequences.
Rule: True for PBM E-score not less than 0.06, False for anything less.

Example entries and their recorded answers appear below.
INSERT INTO results (sequencestring, assignedcategory) VALUES
  ('AAACGAAG', 'False'),
  ('AAGACTAG', 'False'),
  ('CTCGGTGA', 'True'),
  ('CTATCCGC', 'False'),
  ('ATCTCTCC', 'True'),
  ('CCGATAGA', 'True'),
  ('ACCCTGCG', 'False'),
  ('CGCTAGAG', 'False');

Has CCCTCGAA a recorded PBM E-score greater than or equal to 0.06?
False

Input GTCGGTGA
True

Query ATCGGTGC next
True

Continue with CACCTGTA
False

Consider next the sequence ACAGTACG in the same way.
False
